Assay Name: Ability of compound to inhibit the binding of the channel blocking agent [3H](+)-MK-801 in rat cortical membranes
Format: cell membranes, Membrane
Metric Name: IC50 (µM)

A = O=c1[nH]c2cc(Cl)c([N+](=O)[O-])cc2c(=O)n1O
B = O=c1[nH]c2cc(Cl)c(Cl)cc2c(=O)n1O
C = O=c1[nH]c2cc(Cl)cc(Cl)c2c(=O)n1O
D = O=c1[nH]c2cc(Cl)ccc2c(=O)n1O
E = Nc1cc2c(=O)n(O)c(=O)[nH]c2cc1Cl
(Q) Using measured IC50, arrange the compounds from above in descending sequence. Lab note: record answer as labels in requested order.
(A) E, D, A, C, B

// data source = ChEMBL document CHEMBL1148240
